Data provenance is the supplement of paper PMC11208160.

Test: recombinant barcode read abundance after kanamycin selection (control-corrected) (log10(CPM+1)); higher = more efficient recombination; sequences stand for … in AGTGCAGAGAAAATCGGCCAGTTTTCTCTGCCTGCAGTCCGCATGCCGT…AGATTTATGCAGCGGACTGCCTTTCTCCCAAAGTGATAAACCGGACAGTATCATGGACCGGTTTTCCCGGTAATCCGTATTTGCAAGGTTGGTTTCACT; site = the 11-nt target;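 note: IS621 recombinase and bridge RNA in Escherichia coli cells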
Outcome Measure: recombinant barcode read abundance (log10)

ATCGTTGCTTGGGTTCTAACCTGTTGCCT (site TTCGTTGCTAG)    0.0404
TCTTGGACTTGGGTTCTAACCTGTTGCTA (site TCTTGGACTGA)    0.0809
CTATCGCCTTGGGTTCTAACCTGTTGCCT (site CTGTCGCCTAG)    0.0772
TAGTTGTCTTGGGTTCTAACCTGTTGCTT (site TAGTTGTCTAA)    0.569
TGTCAAACTTGGGTTCTAACCTGTTGCGT (site TGTCAACCTAC)    0.0278
TTGATTGCTTGGGTTCTAACCTGTTGCCT (site TTGAGTGCTAG)    0.425
CGACCTACTTGGGTTCTAACCTGTTGCTA (site GTACCTACTTA)    0.17
CCGGTGACTTGGGTTCTAACCTGTTGCCT (site CCGGTGACTAG)    0.743
CTCCATTCTTGGGTTCTAACCTGTTGCAT (site CTCTATTCTAT)    0.34
GACACGCCTTGGGTTCTAACCTGTTGCAT (site GACACGCCTAG)    0.976
CTCCGTACTTGGGTTCTAACCTGTTGCCG (site CTCCGTACTCG)    0.13
TAGGTCGCTTGGGTTCTAACCTGTTGCAT (site TAGGTCGCTAT)    2.48
AGGCTGGCTTGGGTTCTAACCTGTTGCCT (site AGGCTGGCTAG)    0.482
TATTATACTTGGGTTCTAACCTGTTGCCT (site TATTATACTAA)    0.00549
CAAAGATCTTGGGTTCTAACCTGTTGCCT (site CGAAGATCTAG)    0.023
GTGGAAGCTTGGGTTCTAACCTGTTGCCT (site GAGGAAGCTAG)    0.316
GTTACGGCTTGGGTTCTAACCTGTTGCCT (site GTTACGGCTAG)    0.0907
GTGAAGCCTTGGGTTCTAACCTGTTGCCA (site GTGAAGCCTTG)    0.758
GCACCGCCTTGGGTTCTAACCTGTTGCCT (site ACACCGCCTAG)    0.667
GCGGATCCTTGGGTTCTAACCTGTTGCCT (site GCGGATCCTAG)    2.11
GAGCGAGCTTGGGTTCTAACCTGTTGCCG (site GAGCGAGCTCC)    0.582
TATCAGACTTGGGTTCTAACCTGTTGCCA (site TATCAGACTTG)    0.639
CATAGAGCTTGGGTTCTAACCTGTTGCCT (site CATAGGGCTCG)    0.215
ATAAAGACTTGGGTTCTAACCTGTTGCCT (site ATCAAGACTAG)    0.181
ACTTTCCCTTGGGTTCTAACCTGTTGCCT (site ACTTTCCCTAG)    0.424
CTAAGGCCTTGGGTTCTAACCTGTTGCAT (site CTAAGGCCTAT)    1.85
TACCGTCCTTGGGTTCTAACCTGTTGCAT (site TATCGTCCTAT)    0.155
AAGCACCCTTGGGTTCTAACCTGTTGCAG (site AAGCACCCTCT)    2.59
CCTAGACCTTGGGTTCTAACCTGTTGCCT (site CCTAGAACTAG)    0.067
CTACACACTTGGGTTCTAACCTGTTGCTA (site CTACACACTGA)    0.00924
TTGGGCGCTTGGGTTCTAACCTGTTGCCT (site TTGGACGCTAG)    0.0866
CTAAAGTCTTGGGTTCTAACCTGTTGCCC (site CTAAAGTCTGG)    0.4
GAGGAGTCTTGGGTTCTAACCTGTTGCCG (site GAGGAGTCTCG)    1.3
TAGCTCCCTTGGGTTCTAACCTGTTGCCA (site TAGCTCCCTGG)    0.0734
GGGATACCTTGGGTTCTAACCTGTTGCCT (site GCGTTACCTAG)    0.0414
AGGATCCCTTGGGTTCTAACCTGTTGCAG (site AGGATCCCTAT)    0.701
GATCTAGCTTGGGTTCTAACCTGTTGCAT (site CATATAGCTAT)    0.0793
TTCTCTCCTTGGGTTCTAACCTGTTGCCT (site TTCTTTCCTAG)    0.169
CGAAGATCTTGGGTTCTAACCTGTTGCCT (site CGAAGATCTAG)    0.273
CACGATGCTTGGGTTCTAACCTGTTGCCT (site CAAGATGCTAG)    0.437
AGTTGTCCTTGGGTTCTAACCTGTTGCAT (site AGTTGTCCTAG)    0.0326
CCGGTTGCTTGGGTTCTAACCTGTTGCCT (site CCGGATTCTAG)    0.0357
